test system: 935938-334-R-J1-PDC complex spheroid viability; test: Anticancer human tumor 935938-334-R-J1-PDC patient-derived small intestine adenocarcinoma cell line growth inhibition [POLQ]; settings: second compound 0.1 µM; first compound 0.316 µM; stronger effect = lower value
The label yes (1) is reserved for viability, T/C strictly under 80%; no (0) covers values equal to or above it.

MOLECULE	TEST_SYSTEM	DISCRETE_LABEL
O=c1[nH]cc(F)c(=O)[nH]1 + COC1C(OC(N)=O)C(O)C(Oc2ccc3c(O)c(NC(=O)c4ccc(O)c(CC=C(C)C)c4)c(=O)oc3c2C)OC1(C)C	935938-334-R-J1-PDC complex spheroid viability	no (0)
CC1COCCN1c1cc(-c2ccnn2C)c2ccnc(-c3ccn[nH]3)c2n1 (stereo not given) + COC1C(OC(N)=O)C(O)C(Oc2ccc3c(O)c(NC(=O)c4ccc(O)c(CC=C(C)C)c4)c(=O)oc3c2C)OC1(C)C	935938-334-R-J1-PDC complex spheroid viability	yes (1)
O=C(c1cc(Cc2n[nH]c(=O)c3ccccc23)ccc1F)N1CCN(C(=O)C2CC2)CC1 + COC1C(OC(N)=O)C(O)C(Oc2ccc3c(O)c(NC(=O)c4ccc(O)c(CC=C(C)C)c4)c(=O)oc3c2C)OC1(C)C	935938-334-R-J1-PDC complex spheroid viability	no (0)
CCc1c2c(nc3ccc(O)cc13)-c1cc3c(c(=O)n1C2)COC(=O)[C@]3(O)CC + COC1C(OC(N)=O)C(O)C(Oc2ccc3c(O)c(NC(=O)c4ccc(O)c(CC=C(C)C)c4)c(=O)oc3c2C)OC1(C)C	935938-334-R-J1-PDC complex spheroid viability	yes (1)

---

tested on: 935938-334-R-J1-PDC complex spheroid viability; assay: Anticancer human tumor 935938-334-R-J1-PDC cell line growth inhibition [POLQ]; conditions: second compound 3.16 µM; first compound 1 µM; stronger effect = lower value;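 note: spheroids exposed to drugs for seven days before viability read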;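 for viability, T/C: 100% = DMSO vehicle control wells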

COMPOUND	viability, T/C
CCc1cc2c(N3CCc4c(cc(Cn5ccnc5)cc4-c4cn(C)nc4C(F)(F)F)C3=O)cc(C)nc2c(OC)n1 + COC1C(OC(N)=O)C(O)C(Oc2ccc3c(O)c(NC(=O)c4ccc(O)c(CC=C(C)C)c4)c(=O)oc3c2C)OC1(C)C	61.5%
C=CC(=O)N1CCN(c2nc(=O)n(-c3c(C)ccnc3C(C)C)c3nc(-c4c(O)cccc4F)c(F)cc23)C(C)C1 (stereo unspecified) + COC1C(OC(N)=O)C(O)C(Oc2ccc3c(O)c(NC(=O)c4ccc(O)c(CC=C(C)C)c4)c(=O)oc3c2C)OC1(C)C	96.9%
C#Cc1c(F)ccc2cc(O)cc(-c3ncc4c(N5CC6CCC(C5)N6)nc(OCC56CCCN5CC(F)C6)nc4c3F)c12 (stereo unspecified) + COC1C(OC(N)=O)C(O)C(Oc2ccc3c(O)c(NC(=O)c4ccc(O)c(CC=C(C)C)c4)c(=O)oc3c2C)OC1(C)C	86.4%
CC1COCCN1c1cc(-c2ccnn2C)c2ccnc(-c3ccn[nH]3)c2n1 (stereo unspecified) + COC1C(OC(N)=O)C(O)C(Oc2ccc3c(O)c(NC(=O)c4ccc(O)c(CC=C(C)C)c4)c(=O)oc3c2C)OC1(C)C	15%
C#Cc1c(F)ccc2cc(O)cc(-c3ncc4c(N5CC6CCC(C5)N6)nc(OCC56CCCN5CC(F)C6)nc4c3F)c12 (stereo unspecified) + Cc1cccc(N(C)C(=O)C2C(O)CCN2c2nc(C)cc(C(F)(F)F)c2C#N)c1	70.7%
O=C(c1cc(Cc2n[nH]c(=O)c3ccccc23)ccc1F)N1CCN(C(=O)C2CC2)CC1 + COC1C(OC(N)=O)C(O)C(Oc2ccc3c(O)c(NC(=O)c4ccc(O)c(CC=C(C)C)c4)c(=O)oc3c2C)OC1(C)C	75.9%

---

system: 935938-334-R-J1-PDC complex spheroid viability; test: Anticancer human tumor 935938-334-R-J1-PDC cell line growth inhibition [POLQ]; conditions: second compound 1 µM; first compound 0.0316 µM; stronger effect = lower value;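 note: spheroids exposed to drugs for seven days before viability read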;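 for viability, T/C: 100% = DMSO vehicle control wells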

COMPOUND	viability, T/C
CC1COCCN1c1cc(C2(S(C)(=N)=O)CC2)nc(-c2ccnc3[nH]ccc23)n1 (stereo unspecified) + COC1C(OC(N)=O)C(O)C(Oc2ccc3c(O)c(NC(=O)c4ccc(O)c(CC=C(C)C)c4)c(=O)oc3c2C)OC1(C)C	96.1%
COc1ccc([C@@H](O)c2cc(-c3ncnc4cc(N5CCOCC5)ccc34)c(F)cc2Cl)nn1 + Nc1ccc(C#CCN(C(=O)Cc2ncc(C(F)(F)F)cc2C(F)(F)F)c2ccc(F)cc2)nn1	118%
O=C(Nc1ccc(O)c(NS(=O)(=O)c2ccc(F)cc2)c1)c1ccc(-c2ccccc2)cc1 + Cc1cccc(N(C)C(=O)C2C(O)CCN2c2nc(C)cc(C(F)(F)F)c2C#N)c1	91.3%
COc1cccc(OCCCN)c1-c1cc(Nc2cnc(C#N)cn2)n[nH]1 + Cc1cccc(N(C)C(=O)C2C(O)CCN2c2nc(C)cc(C(F)(F)F)c2C#N)c1	60.7%
CC1COCCN1c1cc(C2(S(C)(=N)=O)CC2)nc(-c2ccnc3[nH]ccc23)n1 (stereo unspecified) + Cc1cccc(N(C)C(=O)C2C(O)CCN2c2nc(C)cc(C(F)(F)F)c2C#N)c1	110%
Cn1ncnc1[C@H]1c2n[nH]c(=O)c3cc(F)cc(c23)N[C@@H]1c1ccc(F)cc1 + Cc1cccc(N(C)C(=O)C2C(O)CCN2c2nc(C)cc(C(F)(F)F)c2C#N)c1	114%
COc1cccc(OCCCN)c1-c1cc(Nc2cnc(C#N)cn2)n[nH]1 + COC1C(OC(N)=O)C(O)C(Oc2ccc3c(O)c(NC(=O)c4ccc(O)c(CC=C(C)C)c4)c(=O)oc3c2C)OC1(C)C	57.5%
CCc1cc2c(N3CCc4c(cc(Cn5ccnc5)cc4-c4cn(C)nc4C(F)(F)F)C3=O)cc(C)nc2c(OC)n1 + Nc1ccc(C#CCN(C(=O)Cc2ncc(C(F)(F)F)cc2C(F)(F)F)c2ccc(F)cc2)nn1	89.8%
CCc1cc2c(N3CCc4c(cc(Cn5ccnc5)cc4-c4cn(C)nc4C(F)(F)F)C3=O)cc(C)nc2c(OC)n1 + Cc1cccc(N(C)C(=O)C2C(O)CCN2c2nc(C)cc(C(F)(F)F)c2C#N)c1	91.2%
O=c1[nH]cc(F)c(=O)[nH]1 + Nc1ccc(C#CCN(C(=O)Cc2ncc(C(F)(F)F)cc2C(F)(F)F)c2ccc(F)cc2)nn1	103%
COc1ccc([C@@H](O)c2cc(-c3ncnc4cc(N5CCOCC5)ccc34)c(F)cc2Cl)nn1 + COC1C(OC(N)=O)C(O)C(Oc2ccc3c(O)c(NC(=O)c4ccc(O)c(CC=C(C)C)c4)c(=O)oc3c2C)OC1(C)C	113%

---

Tested on: 935938-334-R-J1-PDC complex spheroid viability
Assay: Anticancer human tumor 935938-334-R-J1-PDC cell line growth inhibition [POLQ];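 note: spheroids exposed to drugs for seven days before viability read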;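 for viability, T/C: 100% = DMSO vehicle control wells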
Details: second compound 1 µM; first compound 0.0316 µM; stronger effect = lower value
Method: Multicellular complex tumor spheroid response to Polymerase (POL) inhibitors (novobiocin, ART-558, RP6685) in combination with a variety of drugs and investigational agents in selected tumor cell lines The POL inhibitors (novobiocin, ART-558, and RP6685) were evaluated both individually and in combination with standard of care and investigational anticancer small molecules within a complex spheroid model of solid tumors. . […]
The label Y is reserved for viability, T/C strictly under 90%; N covers values equal to or above it.

COMPOUND	TEST_SYSTEM	DISCRETE_LABEL
O=c1[nH]cc(F)c(=O)[nH]1 + Cc1cccc(N(C)C(=O)C2C(O)CCN2c2nc(C)cc(C(F)(F)F)c2C#N)c1	935938-334-R-J1-PDC complex spheroid viability	N
CC1COCCN1c1cc(C2(O)CC3CCC(C2)O3)c2cnn(-c3ccn[nH]3)c2n1 (stereo not given) + COC1C(OC(N)=O)C(O)C(Oc2ccc3c(O)c(NC(=O)c4ccc(O)c(CC=C(C)C)c4)c(=O)oc3c2C)OC1(C)C	935938-334-R-J1-PDC complex spheroid viability	Y
O=C(c1cc(Cc2n[nH]c(=O)c3ccccc23)ccc1F)N1CCN(C(=O)C2CC2)CC1 + COC1C(OC(N)=O)C(O)C(Oc2ccc3c(O)c(NC(=O)c4ccc(O)c(CC=C(C)C)c4)c(=O)oc3c2C)OC1(C)C	935938-334-R-J1-PDC complex spheroid viability	Y

---

# pIC50 per record follows
system: 935938-334-R-J1-PDC complex spheroid viability; experiment: Anticancer human tumor 935938-334-R-J1-PDC cell line growth inhibition [POLQ]; details: curve of first compound; second compound 0.316 µM;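 note: spheroids exposed to drugs for seven days before viability read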
pIC50: −log10 of the molar value.
PROPERTY_MEASURED: pIC50

COMPOUND	OBS_VALUE
Cn1ncnc1[C@H]1c2n[nH]c(=O)c3cc(F)cc(c23)N[C@@H]1c1ccc(F)cc1 + Cc1cccc(N(C)C(=O)C2C(O)CCN2c2nc(C)cc(C(F)(F)F)c2C#N)c1	< 7.00
COc1cccc(OCCCN)c1-c1cc(Nc2cnc(C#N)cn2)n[nH]1 + COC1C(OC(N)=O)C(O)C(Oc2ccc3c(O)c(NC(=O)c4ccc(O)c(CC=C(C)C)c4)c(=O)oc3c2C)OC1(C)C	7.32
C=CCn1c(=O)c2cnc(Nc3ccc(N4CCN(C)CC4)cc3)nc2n1-c1cccc(C(C)(C)O)n1 + Nc1ccc(C#CCN(C(=O)Cc2ncc(C(F)(F)F)cc2C(F)(F)F)c2ccc(F)cc2)nn1	6.23
O=C(c1cc(Cc2n[nH]c(=O)c3ccccc23)ccc1F)N1CCN(C(=O)C2CC2)CC1 + COC1C(OC(N)=O)C(O)C(Oc2ccc3c(O)c(NC(=O)c4ccc(O)c(CC=C(C)C)c4)c(=O)oc3c2C)OC1(C)C	< 5.00
Nc1ccn(C2OC(CO)C(O)C2(F)F)c(=O)n1 (stereo not given) + COC1C(OC(N)=O)C(O)C(Oc2ccc3c(O)c(NC(=O)c4ccc(O)c(CC=C(C)C)c4)c(=O)oc3c2C)OC1(C)C	> 7.50
O=c1[nH]cc(F)c(=O)[nH]1 + Nc1ccc(C#CCN(C(=O)Cc2ncc(C(F)(F)F)cc2C(F)(F)F)c2ccc(F)cc2)nn1	< 5.00
C=CC(=O)N1CCN(c2nc(=O)n(-c3c(C)ccnc3C(C)C)c3nc(-c4c(O)cccc4F)c(F)cc23)C(C)C1 (stereo not given) + Nc1ccc(C#CCN(C(=O)Cc2ncc(C(F)(F)F)cc2C(F)(F)F)c2ccc(F)cc2)nn1	< 5.00
COc1cccc(OCCCN)c1-c1cc(Nc2cnc(C#N)cn2)n[nH]1 + Cc1cccc(N(C)C(=O)C2C(O)CCN2c2nc(C)cc(C(F)(F)F)c2C#N)c1	7.39
O=c1[nH]cc(F)c(=O)[nH]1 + Cc1cccc(N(C)C(=O)C2C(O)CCN2c2nc(C)cc(C(F)(F)F)c2C#N)c1	< 5.00
CC(=O)O[C@H]1C(=O)[C@@]2(C)[C@H]([C@H](OC(=O)c3ccccc3)[C@]3(O)C[C@H](OC(=O)[C@H](O)[C@@H](NC(=O)c4ccccc4)c4ccccc4)C(C)=C1C3(C)C)[C@]1(OC(C)=O)CO[C@@H]1C[C@@H]2O + COC1C(OC(N)=O)C(O)C(Oc2ccc3c(O)c(NC(=O)c4ccc(O)c(CC=C(C)C)c4)c(=O)oc3c2C)OC1(C)C	> 8.02
